System: SARS-CoV-2 wild-type
Assay: Antiviral activity (CPE inhibition) in Vero E6 cells, wild-type
Format: cell-based
Settings: MOI = 0.01, 48 h, read-out: EC50 against SARS-CoV-2 wild-type strain
test readout: EC50 (nM)
Answers are plain numbers, in nM.

Cn1cnc(Cn2c(=O)[nH]/c(=N\c3cc4cn(C)nc4cc3Cl)n(Cc3cc(F)c(F)cc3F)c2=O)n1 [S-217622, reference compound] has a reported EC50 of 50

###

Test: in vitro
Conditions: African green monkey
test readout: CC50

Value of measured CC50 for the entry `O=C(OC[C@H]1O[C@@H](OC(=O)c2cc(O)c(O)c(O)c2)[C@H](OC(=O)c2cc(O)c(O)c(O)c2)[C@@H](OC(=O)c2cc(O)c(O)c(O)c2)[C@@H]1O)c1cc(O)c(O)c(O)c1` : > 100 µM

This collection of values is drawn from paper PMC11689655.
